experiment: Chemical stability in phosphate buffer pH 7.4; details: 72h
assayEndpoint: Degradation (%) 72h
Only the number, expressed in %, is required.

Some entries whose results are on file:
compound	number
CCCCOC(=O)c1cc([N+](=O)[O-])cc([N+](=O)[O-])c1	18
CCCCOC(=O)c1cc([N+](=O)[O-])cc(C(F)(F)F)c1	16

Let us move to another entry and its Degradation (%) 72h.
Need Degradation (%) 72h, item CCCCCCCCCCCCNC(=O)c1cc([N+](=O)[O-])cc([N+](=O)[O-])c1 [Compound 7e, N-dodecyl-3.5-dinitrobenzamide]
0

---

Below: a set of entries, each annotated with reported Degradation (%) 24h.
system: Mycobacterium smegmatis homogenate; test: Stability in Mycobacterium smegmatis homogenate (enzymatic hydrolysis); details: Mycobacterium smegmatis homogenate, 37°C; 24h
Kindly format the answer as number then unit.

Guide cases for Degradation (%) 24h, answers given:
compound	Degradation (%) 24h
CCCCCCCCCCCCCCCCOC(=O)c1cc([N+](=O)[O-])cc([N+](=O)[O-])c1 [Compound 3g, Hexadecyl 3,5-dinitrobenzoate]	2%
CCCCCCCCNC(=O)c1cc([N+](=O)[O-])cc(C(F)(F)F)c1 [Compound 8c]	5%

Continue with the compound presented below.
Request the reported Degradation (%) 24h associated with CCCCCCCCCCCCCCCCNC(=O)c1cc([N+](=O)[O-])cc([N+](=O)[O-])c1 [Compound 7g, N-hexadecyl-3.5-dinitrobenzamide]
0%
